Overview of reported HDAC6 selectivity (fold) across a group of molecules:
- targetOrTestSystem: human recombinant HDAC6 (Homo sapiens, UniProt Q9UBN7)
- Construct: purchased Calbiochem 382180
- Sequence (Q9UBN7 whole entry): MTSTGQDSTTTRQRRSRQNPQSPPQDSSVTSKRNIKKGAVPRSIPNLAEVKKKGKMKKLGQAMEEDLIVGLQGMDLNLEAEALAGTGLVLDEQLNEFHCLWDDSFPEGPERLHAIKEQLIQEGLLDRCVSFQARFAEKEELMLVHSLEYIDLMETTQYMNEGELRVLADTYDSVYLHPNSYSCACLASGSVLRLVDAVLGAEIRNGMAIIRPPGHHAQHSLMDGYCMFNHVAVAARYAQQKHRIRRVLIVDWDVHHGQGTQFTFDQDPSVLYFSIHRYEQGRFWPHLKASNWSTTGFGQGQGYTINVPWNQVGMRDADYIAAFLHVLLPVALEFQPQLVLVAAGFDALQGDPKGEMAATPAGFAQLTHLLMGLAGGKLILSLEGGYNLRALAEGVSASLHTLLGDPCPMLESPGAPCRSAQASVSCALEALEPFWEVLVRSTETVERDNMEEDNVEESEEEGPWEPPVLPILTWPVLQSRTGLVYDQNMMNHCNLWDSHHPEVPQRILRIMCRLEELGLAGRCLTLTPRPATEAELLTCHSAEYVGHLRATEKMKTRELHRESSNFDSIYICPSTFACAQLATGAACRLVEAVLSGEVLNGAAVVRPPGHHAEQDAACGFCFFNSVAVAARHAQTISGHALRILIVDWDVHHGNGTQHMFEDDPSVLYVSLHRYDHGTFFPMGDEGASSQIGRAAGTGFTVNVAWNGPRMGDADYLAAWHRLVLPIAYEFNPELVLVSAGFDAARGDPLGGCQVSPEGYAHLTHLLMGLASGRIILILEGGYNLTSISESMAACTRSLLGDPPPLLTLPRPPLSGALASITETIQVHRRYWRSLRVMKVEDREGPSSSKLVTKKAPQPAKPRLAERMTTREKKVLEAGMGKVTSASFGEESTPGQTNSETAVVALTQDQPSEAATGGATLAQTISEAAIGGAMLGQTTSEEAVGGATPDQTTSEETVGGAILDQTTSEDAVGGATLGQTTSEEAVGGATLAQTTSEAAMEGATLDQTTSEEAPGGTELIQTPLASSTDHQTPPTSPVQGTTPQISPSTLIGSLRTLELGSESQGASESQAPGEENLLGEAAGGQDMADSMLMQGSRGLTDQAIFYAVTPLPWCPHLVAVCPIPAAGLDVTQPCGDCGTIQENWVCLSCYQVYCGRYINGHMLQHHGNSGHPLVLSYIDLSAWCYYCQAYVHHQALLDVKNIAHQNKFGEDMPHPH
- assayMethodText: HDAC6 enzyme activity inhibition assay (HDAC Fluorimetric Drug Discovery Kit)
- Format: biochemical
- measurementConditions: HDAC6 over HDAC1
Express it in fold; write the number only.

// known answers, use as guide
[[record]]
entrysmiles = "O=C(NCCN1CCCC1)N(Cc1ccc(-c2nnc(C(F)F)o2)cc1F)c1ccccc1"
targetortestsystem = "human recombinant HDAC6 (Homo sapiens, UniProt Q9UBN7)"
readingunit = "fold"
reportedmeasurement = 60

[[record]]
entrysmiles = "O=C(N1CCN(CCO)CC1)N(Cc1ccc(-c2nnc(C(F)(F)F)o2)cc1)c1ccccc1"
targetortestsystem = "human recombinant HDAC6 (Homo sapiens, UniProt Q9UBN7)"
readingunit = "fold"
reportedmeasurement = 127

[[record]]
entrysmiles = "Cn1ncc2cccc(N(Cc3ccc(-c4nnc(C(F)F)o4)cc3F)C(=O)N3CCS(=O)(=O)CC3)c21"
targetortestsystem = "human recombinant HDAC6 (Homo sapiens, UniProt Q9UBN7)"
readingunit = "fold"
reportedmeasurement = 167


Fill in: human recombinant HDAC6 (Homo sapiens, UniProt Q9UBN7) HDAC6 selectivity (fold) for `Cc1ccc(N(Cc2ccc(-c3nnc(C(F)(F)F)o3)cc2)C(=O)N2CCS(=O)(=O)CC2)c(F)c1` = 53

Taken from patent US10717716B2.
